Reference for the values: patent US20240209076A1

Target: T1, recombinant human IL-6 (human, UniProt P05231 30-212)
T1 construct: Bought protein
T1 sequence (P05231 30-212 limits assumed): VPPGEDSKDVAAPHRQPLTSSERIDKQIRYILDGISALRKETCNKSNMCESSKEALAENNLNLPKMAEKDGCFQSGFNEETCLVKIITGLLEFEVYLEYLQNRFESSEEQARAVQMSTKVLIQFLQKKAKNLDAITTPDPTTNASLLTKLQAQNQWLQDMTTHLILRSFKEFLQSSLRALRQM
Test: SPR Biacore, supernatant Ab on Protein A chip, IL-6 analyte, 25 C
Property label: koff (s⁻¹)
One number for each entry, in s⁻¹.

[
  {
    "Binder": "anti-IL-6 antibody, heavy chain variant II (M34W, G66D, I108V) / light chain variant V (M32L, M50D, M88Q) (antibody, V domains shown, See note of m39; also called M34W, G66D, I108V/ M32L, M50D, M88Q; II/V) VH: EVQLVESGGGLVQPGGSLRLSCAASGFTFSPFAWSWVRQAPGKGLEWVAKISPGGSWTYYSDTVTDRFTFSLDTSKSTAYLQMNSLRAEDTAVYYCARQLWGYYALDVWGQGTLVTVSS VL: DIQLTQSPSSLSASVGDRVTITCSASISVSYLYWYQQKPGKAPKLLIYDDSNLASGVPSRFSGSGSGTDFTLTISSLQPEDFATYYCQQWSGYPYTFGQGTKVEIK",
    "koff (s⁻¹)": 0.000271
  },
  {
    "Binder": "anti-IL-6 antibody, light chain S55L (heavy chain WT) (antibody, V domains shown, See note of m2; also called WT / S55L) VH: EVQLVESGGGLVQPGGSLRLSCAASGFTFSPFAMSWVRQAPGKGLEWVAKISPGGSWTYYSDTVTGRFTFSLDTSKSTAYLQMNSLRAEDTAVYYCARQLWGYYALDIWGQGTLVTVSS VL: DIQLTQSPSSLSASVGDRVTITCSASISVSYMYWYQQKPGKAPKLLIYDMSNLALGVPSRFSGSGSGTDFTLTISSLQPEDFATYYCMQWSGYPYTFGQGTKVEIK",
    "koff (s⁻¹)": 0.00022
  },
  {
    "Binder": "anti-IL-6 antibody, light chain N52S (heavy chain WT) (antibody, V domains shown, See note of m2; also called WT / N52S) VH: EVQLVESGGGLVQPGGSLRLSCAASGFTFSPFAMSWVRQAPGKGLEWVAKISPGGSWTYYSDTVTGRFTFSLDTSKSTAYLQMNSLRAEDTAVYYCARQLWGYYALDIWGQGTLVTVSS VL: DIQLTQSPSSLSASVGDRVTITCSASISVSYMYWYQQKPGKAPKLLIYDMSSLASGVPSRFSGSGSGTDFTLTISSLQPEDFATYYCMQWSGYPYTFGQGTKVEIK",
    "koff (s⁻¹)": 0.000152
  },
  {
    "Binder": "anti-IL-6 antibody, light chain D49E (heavy chain WT) (antibody, V domains shown, See note of m2; also called WT / D49E) VH: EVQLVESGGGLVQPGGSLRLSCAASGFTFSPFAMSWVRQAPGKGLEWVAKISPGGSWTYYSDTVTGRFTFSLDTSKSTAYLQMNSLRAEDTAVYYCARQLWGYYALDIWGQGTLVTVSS VL: DIQLTQSPSSLSASVGDRVTITCSASISVSYMYWYQQKPGKAPKLLIYEMSNLASGVPSRFSGSGSGTDFTLTISSLQPEDFATYYCMQWSGYPYTFGQGTKVEIK",
    "koff (s⁻¹)": 0.000111
  }
]

Returns the measured koff for the input binder. Input: anti-IL-6 antibody, light chain S91A (heavy chain WT) (antibody, V domains shown, See note of m2; also called WT / S91A) VH: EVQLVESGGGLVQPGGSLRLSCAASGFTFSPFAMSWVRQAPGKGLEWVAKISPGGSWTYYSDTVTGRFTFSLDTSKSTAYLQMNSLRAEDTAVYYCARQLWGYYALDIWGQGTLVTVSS VL: DIQLTQSPSSLSASVGDRVTITCSASISVSYMYWYQQKPGKAPKLLIYDMSNLASGVPSRFSGSGSGTDFTLTISSLQPEDFATYYCMQWAGYPYTFGQGTKVEIK
0.000139
